// reported Total Flux (p/s) Spleen for each item listed
Test system: Balb/c mice
Experiment: In vivo organ-specific bioluminescence (biodistribution of Fluc) following IV administration
Conditions: dissected spleen

# Structure Smiles String, Target System, Total Flux (p/s) Spleen
rows = [
    ("CCCCCCCCCCN(CC(N)=O)C(=O)CN(CCCCCCCCCC)C(=O)CN(CCCCCCCCCC)C(=O)CN(CCCCCCCCCC)C(=O)CN(CCc1ccccc1)C(=O)CN(CCc1ccccc1)C(=O)CN(CCCN)C(=O)CN(CCc1ccccc1)C(=O)CN(CCc1ccccc1)C(=O)CN(CCCN)C(=O)CN(CCc1ccccc1)C(=O)CN(CCc1ccccc1)C(=O)CNCCCN", "Balb/c mice", "2.16E+08"),
    ("CCCCCCCCCCN(CC(N)=O)C(=O)CN(CCCCCCCCCC)C(=O)CN(CCc1ccccc1)C(=O)CN(CCc1ccccc1)C(=O)CN(CCN)C(=O)CN(CCc1ccccc1)C(=O)CN(CCc1ccccc1)C(=O)CNCCN", "Balb/c mice", "2.17E+06"),
    ("CCCCCCCCCCN(CC(N)=O)C(=O)CN(CCCCCCCCCC)C(=O)CN(CCN)C(=O)CN(CCN)C(=O)CNCCN", "Balb/c mice", "4.89E+04"),
    ("CCCCCCCCCCN(CC(N)=O)C(=O)CN(CCCCCCCCCC)C(=O)CN(CCc1ccccc1)C(=O)CN(CCc1ccccc1)C(=O)CN(CCN)C(=O)CN(CCc1ccccc1)C(=O)CN(CCc1ccccc1)C(=O)CN(CCN)C(=O)CN(CCc1ccccc1)C(=O)CN(CCc1ccccc1)C(=O)CNCCN", "Balb/c mice", "3.39E+06"),
]
